# Test system: colo320 colorectal cancer tumor model
# assay.setup: 15 mg/kg once a week for four weeks; Table 3
Where a SMILES comes first, the peptide text is derived from it. The star is where a group is joined. NEt(2-(20S-CPT-7-yl)ethyl) = CCN(CCc1c2c(nc3ccccc13)-c1cc3c(c(=O)n1C2)COC(=O)[C@]3(O)CC)*; Belotecan = CC[C@@]1(O)C(=O)OCc2c1cc1n(c2=O)Cc2c-1nc1ccccc1c2CCN(C(C)C)*; X6 = CCCCCN(CCc1c2c(nc3ccccc13)-c1cc3c(c(=O)n1C2)COC(=O)[C@]3(O)CC)*; X4 = CCCN(CCc1c2c(nc3ccccc13)-c1cc3c(c(=O)n1C2)COC(=O)[C@]3(O)CC)*; Propanoyl(3-maleimido) = O=C1C=CC(=O)N1CCC(=O)*; PEG6 = NCCOCCOCCOCCOCCOCCOCCC(=O)O
endpoint.name: colo320 (colorectal cancer cell) growth rate (%)

[
  {
    "compound": "CCCCCN(CCc1c2c(nc3ccccc13)-c1cc3c(c(=O)n1C2)COC(=O)[C@]3(O)CC)C(=O)CNC(=O)[C@H](CC(N)=O)NC(=O)[C@H](C)NC(=O)[C@H](C)NC(=O)CCOCCOCCOCCOCCOCCOCCNC(=O)CCN1C(=O)C=CC1=O [MI-6PEG-AANG-D4] ({Propanoyl(3-maleimido)-PEG6}-AANG-X6)",
    "measured": "870.11%"
  },
  {
    "compound": "CCCN(CCc1c2c(nc3ccccc13)-c1cc3c(c(=O)n1C2)COC(=O)[C@]3(O)CC)C(=O)CNC(=O)[C@H](CC(N)=O)NC(=O)[C@H](C)NC(=O)[C@H](C)NC(=O)CCOCCOCCOCCOCCOCCOCCNC(=O)CCN1C(=O)C=CC1=O [MI-6PEG-AANG-D3] ({Propanoyl(3-maleimido)-PEG6}-AANG-X4)",
    "measured": "985.14%"
  },
  {
    "compound": "CCN(CCc1c2c(nc3ccccc13)-c1cc3c(c(=O)n1C2)COC(=O)[C@]3(O)CC)C(=O)CNC(=O)[C@H](CCCCN)NC(=O)[C@H](C)NC(=O)[C@H](C)NC(=O)CCOCCOCCOCCOCCOCCOCCNC(=O)CCN1C(=O)C=CC1=O [MI-6PEG-AAKG-D2] ({Propanoyl(3-maleimido)-PEG6}-AAKG-{NEt(2-(20S-CPT-7-yl)ethyl)})",
    "measured": "943.33%"
  },
  {
    "compound": "CC[C@@]1(O)C(=O)OCc2c1cc1n(c2=O)Cc2c-1nc1ccccc1c2CCN(C(=O)CNC(=O)[C@H](Cc1ccccc1)NC(=O)CNC(=O)CNC(=O)CCOCCOCCOCCOCCOCCOCCNC(=O)CCN1C(=O)C=CC1=O)C(C)C [MI-6PEG-GGFG-Belotecan] ({Propanoyl(3-maleimido)-PEG6}-GGFG-Belotecan)",
    "measured": "1057.73%"
  }
]
